Tested on: 885512-296-R-J2-PDC complex spheroid growth, % test/control
test: Anticancer human tumor 885512-296-R-J2-PDC patient-derived breast carcinoma cell line growth inhibition [Asc]
protocol-conditions: second compound 0.03 µM; first compound 0.00316 µM; active compounds read low
quantity-measured: viability, T/C (%)
Write down the numeric answer in % and omit the unit.

Recorded viability, T/C, per entry:
NC1CCC(NC2CC2c2ccccc2)CC1 (stereo unspecified) + CCN1C(C(=O)NC23CCC(C(=O)O)(CC2)CC3)C(c2cccc(Cl)c2F)C2(C(=O)Nc3cc(Cl)ccc32)C12CCCCC2 ... 120
O=C(c1ccc(F)c(F)c1Nc1ccc(I)cc1F)N1CC(O)([C@@H]2CCCCN2)C1 + CCN1C(C(=O)NC23CCC(C(=O)O)(CC2)CC3)C(c2cccc(Cl)c2F)C2(C(=O)Nc3cc(Cl)ccc32)C12CCCCC2 ... 100
CCN1CCN(Cc2ccc(Nc3ncc(F)c(-c4cc(F)c5nc(C)n(C(C)C)c5c4)n3)nc2)CC1 + CCN1C(C(=O)NC23CCC(C(=O)O)(CC2)CC3)C(c2cccc(Cl)c2F)C2(C(=O)Nc3cc(Cl)ccc32)C12CCCCC2 ... 98.5
Cn1ncnc1[C@H]1c2n[nH]c(=O)c3cc(F)cc(c23)N[C@@H]1c1ccc(F)cc1 + CCN1C(C(=O)NC23CCC(C(=O)O)(CC2)CC3)C(c2cccc(Cl)c2F)C2(C(=O)Nc3cc(Cl)ccc32)C12CCCCC2 ... 91.6
CNC(C)C(=O)NC1CN(S(=O)(=O)c2cccc(S(=O)(=O)N3CCC4CCC(C(=O)NC(c5ccccc5)c5ccccc5)N4C(=O)C(NC(=O)C(C)NC)C3)c2)CCC2CCC(C(=O)NC(c3ccccc3)c3ccccc3)N2C1=O (stereo unspecified) + CCN1C(C(=O)NC23CCC(C(=O)O)(CC2)CC3)C(c2cccc(Cl)c2F)C2(C(=O)Nc3cc(Cl)ccc32)C12CCCCC2 ... 92.3

Now look at this one.
The molecule identified as COc1c(OCCCN2CCOCC2)ccc2c3n(c(=NC(=O)c4cnc(N)nc4)nc12)CCN3 + CCN1C(C(=O)NC23CCC(C(=O)O)(CC2)CC3)C(c2cccc(Cl)c2F)C2(C(=O)Nc3cc(Cl)ccc32)C12CCCCC2 registered its viability, T/C at 80.1

* * *

Test system: 885512-296-R-J2-PDC complex spheroid growth, % test/control
test: Anticancer human tumor 885512-296-R-J2-PDC cell line growth inhibition [Asc];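 also: spheroids exposed to compounds for seven days; 100% = DMSO vehicle control wells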
protocol-conditions: second compound 0.316 µM; first compound 0.0316 µM; active compounds read low
quantity-measured: viability, T/C (%)
Write down the numeric answer in % and omit the unit.

Recorded viability, T/C, per entry:
Cn1ncnc1[C@H]1c2n[nH]c(=O)c3cc(F)cc(c23)N[C@@H]1c1ccc(F)cc1 + CNC(C)C(=O)NC1CN(S(=O)(=O)c2cccc(S(=O)(=O)N3CCC4CCC(C(=O)NC(c5ccccc5)c5ccccc5)N4C(=O)C(NC(=O)C(C)NC)C3)c2)CCC2CCC(C(=O)NC(c3ccccc3)c3ccccc3)N2C1=O ... 42.4
COc1c(OCCCN2CCOCC2)ccc2c3n(c(=NC(=O)c4cnc(N)nc4)nc12)CCN3 + CNC(C)C(=O)NC1CN(S(=O)(=O)c2cccc(S(=O)(=O)N3CCC4CCC(C(=O)NC(c5ccccc5)c5ccccc5)N4C(=O)C(NC(=O)C(C)NC)C3)c2)CCC2CCC(C(=O)NC(c3ccccc3)c3ccccc3)N2C1=O ... 97.4
NC1CCC(NC2CC2c2ccccc2)CC1 (stereo not drawn) + Cc1c(S(C)(=O)=O)c(-c2cc(F)cc(N3CCN(c4ccc(NS(=O)(=O)c5ccc(NC(CCN6CCC(C(=O)OCCCP(=O)(O)O)CC6)CSc6ccccc6)c(S(=O)(=O)C(F)(F)F)c5)cc4)CC3)c2)c(-c2ccc(Cl)cc2)n1C(C)C ... 127

The molecule identified as Cn1ncnc1[C@H]1c2n[nH]c(=O)c3cc(F)cc(c23)N[C@@H]1c1ccc(F)cc1 + Cc1c(S(C)(=O)=O)c(-c2cc(F)cc(N3CCN(c4ccc(NS(=O)(=O)c5ccc(NC(CCN6CCC(C(=O)OCCCP(=O)(O)O)CC6)CSc6ccccc6)c(S(=O)(=O)C(F)(F)F)c5)cc4)CC3)c2)c(-c2ccc(Cl)cc2)n1C(C)C registered its viability, T/C at 54.2

The molecule identified as C#Cc1c(F)ccc2cc(O)cc(-c3ncc4c(N5CC6CCC(C5)N6)nc(OCC56CCCN5CC(F)C6)nc4c3F)c12 (stereo not drawn) + CNC(C)C(=O)NC1CN(S(=O)(=O)c2cccc(S(=O)(=O)N3CCC4CCC(C(=O)NC(c5ccccc5)c5ccccc5)N4C(=O)C(NC(=O)C(C)NC)C3)c2)CCC2CCC(C(=O)NC(c3ccccc3)c3ccccc3)N2C1=O registered its viability, T/C at 112

The molecule identified as C=CC(=O)N1CCN(c2nc(=O)n(-c3c(C)ccnc3C(C)C)c3nc(-c4c(O)cccc4F)c(F)cc23)C(C)C1 (stereo not drawn) + CNC(C)C(=O)NC1CN(S(=O)(=O)c2cccc(S(=O)(=O)N3CCC4CCC(C(=O)NC(c5ccccc5)c5ccccc5)N4C(=O)C(NC(=O)C(C)NC)C3)c2)CCC2CCC(C(=O)NC(c3ccccc3)c3ccccc3)N2C1=O registered its viability, T/C at 104

The molecule identified as COc1c(OCCCN2CCOCC2)ccc2c3n(c(=NC(=O)c4cnc(N)nc4)nc12)CCN3 + Cc1c(S(C)(=O)=O)c(-c2cc(F)cc(N3CCN(c4ccc(NS(=O)(=O)c5ccc(NC(CCN6CCC(C(=O)OCCCP(=O)(O)O)CC6)CSc6ccccc6)c(S(=O)(=O)C(F)(F)F)c5)cc4)CC3)c2)c(-c2ccc(Cl)cc2)n1C(C)C registered its viability, T/C at 79.3

The molecule identified as NC1CCC(NC2CC2c2ccccc2)CC1 (stereo not drawn) + CNC(C)C(=O)NC1CN(S(=O)(=O)c2cccc(S(=O)(=O)N3CCC4CCC(C(=O)NC(c5ccccc5)c5ccccc5)N4C(=O)C(NC(=O)C(C)NC)C3)c2)CCC2CCC(C(=O)NC(c3ccccc3)c3ccccc3)N2C1=O registered its viability, T/C at 108

* * *

Reported values of viability, T/C for individual entries
Test system: 885512-296-R-J2-PDC complex spheroid growth, % test/control
test: Anticancer human tumor 885512-296-R-J2-PDC cell line growth inhibition [Asc];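 also: spheroids exposed to compounds for seven days; 100% = DMSO vehicle control wells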
protocol-conditions: second compound 1 µM; first compound 0.03 µM; active compounds read low

Recorded viability, T/C, per entry:
Cc1nc(N2CCC3(CC2)COC(C)C3N)c(CO)nc1Sc1ccnc(N)c1Cl (stereo not drawn) + CNC(C)C(=O)NC1CN(S(=O)(=O)c2cccc(S(=O)(=O)N3CCC4CCC(C(=O)NC(c5ccccc5)c5ccccc5)N4C(=O)C(NC(=O)C(C)NC)C3)c2)CCC2CCC(C(=O)NC(c3ccccc3)c3ccccc3)N2C1=O ... 112%
NC(=O)C(=Cn1cnc(-c2cc(C(F)(F)F)cc(C(F)(F)F)c2)n1)c1cncnc1 + Cc1c(S(C)(=O)=O)c(-c2cc(F)cc(N3CCN(c4ccc(NS(=O)(=O)c5ccc(NC(CCN6CCC(C(=O)OCCCP(=O)(O)O)CC6)CSc6ccccc6)c(S(=O)(=O)C(F)(F)F)c5)cc4)CC3)c2)c(-c2ccc(Cl)cc2)n1C(C)C ... 64.4%

The compound identified as CCN1C(C(=O)NC23CCC(C(=O)O)(CC2)CC3)C(c2cccc(Cl)c2F)C2(C(=O)Nc3cc(Cl)ccc32)C12CCCCC2 (stereo not drawn) + Cc1c(S(C)(=O)=O)c(-c2cc(F)cc(N3CCN(c4ccc(NS(=O)(=O)c5ccc(NC(CCN6CCC(C(=O)OCCCP(=O)(O)O)CC6)CSc6ccccc6)c(S(=O)(=O)C(F)(F)F)c5)cc4)CC3)c2)c(-c2ccc(Cl)cc2)n1C(C)C registered its viability, T/C at 79.3%

* * *

System: 885512-296-R-J2-PDC complex spheroid growth, % test/control
test: Anticancer human tumor 885512-296-R-J2-PDC cell line growth inhibition [Asc];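 also: spheroids exposed to compounds for seven days; 100% = DMSO vehicle control wells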
protocol-conditions: second compound 10 µM; first compound 0.316 µM; active compounds read low
quantity-measured: viability, T/C

The compound identified as O=C(c1cc(Cc2n[nH]c(=O)c3ccccc23)ccc1F)N1CCN(C(=O)C2CC2)CC1 + Cc1c(S(C)(=O)=O)c(-c2cc(F)cc(N3CCN(c4ccc(NS(=O)(=O)c5ccc(NC(CCN6CCC(C(=O)OCCCP(=O)(O)O)CC6)CSc6ccccc6)c(S(=O)(=O)C(F)(F)F)c5)cc4)CC3)c2)c(-c2ccc(Cl)cc2)n1C(C)C registered its viability, T/C at 97.5%

* * *

Test system: 885512-296-R-J2-PDC complex spheroid growth, % test/control
test: Anticancer human tumor 885512-296-R-J2-PDC cell line growth inhibition [Asc];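 also: spheroids exposed to compounds for seven days; 100% = DMSO vehicle control wells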
protocol-conditions: second compound 0.1 µM; first compound 0.0316 µM; active compounds read low
Source text: Multicellular complex tumor spheroid response to apoptosis pathway targeting inhibitors Alrizomadlin, Pelcitoclax, and Dasminapant in combination with a variety of drugs and investigational agents in selected tumor cell lines […] Compounds. […] If the clinical Cmax for an agent had not been determined, the highest concentration tested was 10 microM. […]
quantity-measured: viability, T/C (%)
Write down the numeric answer in % and omit the unit.

Recorded viability, T/C, per entry:
COc1c(OCCCN2CCOCC2)ccc2c3n(c(=NC(=O)c4cnc(N)nc4)nc12)CCN3 + Cc1c(S(C)(=O)=O)c(-c2cc(F)cc(N3CCN(c4ccc(NS(=O)(=O)c5ccc(NC(CCN6CCC(C(=O)OCCCP(=O)(O)O)CC6)CSc6ccccc6)c(S(=O)(=O)C(F)(F)F)c5)cc4)CC3)c2)c(-c2ccc(Cl)cc2)n1C(C)C ... 95.9
CCN1CCN(Cc2ccc(Nc3ncc(F)c(-c4cc(F)c5nc(C)n(C(C)C)c5c4)n3)nc2)CC1 + Cc1c(S(C)(=O)=O)c(-c2cc(F)cc(N3CCN(c4ccc(NS(=O)(=O)c5ccc(NC(CCN6CCC(C(=O)OCCCP(=O)(O)O)CC6)CSc6ccccc6)c(S(=O)(=O)C(F)(F)F)c5)cc4)CC3)c2)c(-c2ccc(Cl)cc2)n1C(C)C ... 89.3
CCN1CCN(Cc2ccc(Nc3ncc(F)c(-c4cc(F)c5nc(C)n(C(C)C)c5c4)n3)nc2)CC1 + CNC(C)C(=O)NC1CN(S(=O)(=O)c2cccc(S(=O)(=O)N3CCC4CCC(C(=O)NC(c5ccccc5)c5ccccc5)N4C(=O)C(NC(=O)C(C)NC)C3)c2)CCC2CCC(C(=O)NC(c3ccccc3)c3ccccc3)N2C1=O ... 116
C#Cc1c(F)ccc2cc(O)cc(-c3ncc4c(N5CC6CCC(C5)N6)nc(OCC56CCCN5CC(F)C6)nc4c3F)c12 (configuration not stated) + Cc1c(S(C)(=O)=O)c(-c2cc(F)cc(N3CCN(c4ccc(NS(=O)(=O)c5ccc(NC(CCN6CCC(C(=O)OCCCP(=O)(O)O)CC6)CSc6ccccc6)c(S(=O)(=O)C(F)(F)F)c5)cc4)CC3)c2)c(-c2ccc(Cl)cc2)n1C(C)C ... 96.9
COc1c(OCCCN2CCOCC2)ccc2c3n(c(=NC(=O)c4cnc(N)nc4)nc12)CCN3 + CNC(C)C(=O)NC1CN(S(=O)(=O)c2cccc(S(=O)(=O)N3CCC4CCC(C(=O)NC(c5ccccc5)c5ccccc5)N4C(=O)C(NC(=O)C(C)NC)C3)c2)CCC2CCC(C(=O)NC(c3ccccc3)c3ccccc3)N2C1=O ... 86.3

The molecule identified as O=C(c1cc(Cc2n[nH]c(=O)c3ccccc23)ccc1F)N1CCN(C(=O)C2CC2)CC1 + Cc1c(S(C)(=O)=O)c(-c2cc(F)cc(N3CCN(c4ccc(NS(=O)(=O)c5ccc(NC(CCN6CCC(C(=O)OCCCP(=O)(O)O)CC6)CSc6ccccc6)c(S(=O)(=O)C(F)(F)F)c5)cc4)CC3)c2)c(-c2ccc(Cl)cc2)n1C(C)C registered its viability, T/C at 90.8

The molecule identified as C#Cc1c(F)ccc2cc(O)cc(-c3ncc4c(N5CC6CCC(C5)N6)nc(OCC56CCCN5CC(F)C6)nc4c3F)c12 (configuration not stated) + CNC(C)C(=O)NC1CN(S(=O)(=O)c2cccc(S(=O)(=O)N3CCC4CCC(C(=O)NC(c5ccccc5)c5ccccc5)N4C(=O)C(NC(=O)C(C)NC)C3)c2)CCC2CCC(C(=O)NC(c3ccccc3)c3ccccc3)N2C1=O registered its viability, T/C at 102

The molecule identified as O=C(c1cc(Cc2n[nH]c(=O)c3ccccc23)ccc1F)N1CCN(C(=O)C2CC2)CC1 + CNC(C)C(=O)NC1CN(S(=O)(=O)c2cccc(S(=O)(=O)N3CCC4CCC(C(=O)NC(c5ccccc5)c5ccccc5)N4C(=O)C(NC(=O)C(C)NC)C3)c2)CCC2CCC(C(=O)NC(c3ccccc3)c3ccccc3)N2C1=O registered its viability, T/C at 97.9
